Assay: Solubility study of crystal form I
Format: physicochemical
Settings: ethyl acetate, organic solvent or mixture, thermodynamic from solid
Protocol: The HPLC for solubility and stability is carried out using a Phenomenex Luna C18 (2), 3 µm, 2X50 mm chromatographic column. 50 µL or 100 µL of the solvent shown in Table 6 was gradually added to 2 mg of crystal form I, and the resulting mixture was manually shaken, vortexed, or sonicated to dissolve. Addition of solvent was stopped if the concentration was below 1 mg/mL. The solubility was calculated based on the sample amount and the total amount of solvent added.
METRIC: solubility

> print(dat)
                                   compound  observed.measurement
1  COc1cnc(-c2c(OC)ncnc2C2CC2)nc1NCC12CCC(c3nc(C(F)(F)F)cn3C)(CC1)CC2 [crystal form I]    14.9 to 29.8 mg/mL
